assayDetails: pKa value by 1H NMR spectroscopy
Format: physicochemical
Answer Not fulfilled if pKa is under 7, and Fulfilled if it is 7 or more.

- compound: "CCOC(=O)C(C(=O)OCC)n1ccnc1"
  groupLabel: "Not fulfilled"
- compound: "O=C(O)CC(C(=O)O)n1ccnc1 (centres undefined)"
  groupLabel: "Fulfilled"
- compound: "O=C(O)Cn1ccnc1"
  groupLabel: "Fulfilled"
- compound: "CCOC(=O)CC(C(=O)OCC)n1ccnc1 (centres undefined)"
  groupLabel: "Not fulfilled"
- compound: "CCOC(=O)CC(CC(=O)OCC)n1ccnc1"
  groupLabel: "Not fulfilled"

Please examine the following record next.
Request: State whether the measured pKa reaches 7, counting equality as reaching it, for "O=C(O)CC(CC(=O)O)n1ccnc1"
Response: Fulfilled

----------
assayDetails: pKa value by 1H NMR spectroscopy
Assay type: physicochemical
Known pKa of a selection of molecules
In your answer, state the number alone without any accompanying words.

Request: Using the record for CCOC(=O)CC(C(=O)O)n1ccnc1 (stereo not drawn) , report its pKa.
Response: 6.86

Request: What pKa value was documented for this molecule, c1c[nH]cn1 [IMIDAZOLE] ?
Response: 7.14

Request: I would be grateful if you could share the reported pKa for "COC(=O)Cn1ccnc1" .
Response: 7.1
